Molecular target: HPEPT1 (Homo sapiens)
Sequence (P46059 whole entry): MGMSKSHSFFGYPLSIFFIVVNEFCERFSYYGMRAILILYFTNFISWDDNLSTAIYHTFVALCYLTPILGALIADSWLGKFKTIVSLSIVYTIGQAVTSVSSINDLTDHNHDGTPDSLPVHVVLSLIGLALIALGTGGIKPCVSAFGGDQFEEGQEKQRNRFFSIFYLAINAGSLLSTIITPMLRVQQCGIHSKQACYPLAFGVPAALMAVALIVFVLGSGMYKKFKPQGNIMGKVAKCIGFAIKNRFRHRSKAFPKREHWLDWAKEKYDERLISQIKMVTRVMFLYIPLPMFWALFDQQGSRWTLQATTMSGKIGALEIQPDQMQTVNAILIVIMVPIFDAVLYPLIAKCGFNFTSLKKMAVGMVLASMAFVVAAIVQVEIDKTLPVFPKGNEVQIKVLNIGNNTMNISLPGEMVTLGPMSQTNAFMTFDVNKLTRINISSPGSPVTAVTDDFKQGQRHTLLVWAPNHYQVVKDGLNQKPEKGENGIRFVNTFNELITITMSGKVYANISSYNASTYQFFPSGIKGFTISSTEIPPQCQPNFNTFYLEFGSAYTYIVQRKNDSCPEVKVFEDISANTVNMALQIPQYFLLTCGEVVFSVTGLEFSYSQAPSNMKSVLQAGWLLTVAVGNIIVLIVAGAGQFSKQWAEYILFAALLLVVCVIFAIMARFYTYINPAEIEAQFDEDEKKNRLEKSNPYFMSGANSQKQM
Details: ratio of uptake in hPepT1 cells versus control cells
property.label: hPepT1/Control
Respond numerically, and do not add a unit to the figure.

CC(C)[C@H](N)C(=O)OC[C@H]1O[C@@H](n2cc(F)c(=O)[nH]c2=O)C[C@@H]1O : 19.24

Quick check: hPepT1/Control on HPEPT1 (Homo sapiens), item CC(C)[C@H](N)C(=O)O[C@@H]1[C@@H](CO)O[C@@H](n2ccc(N)nc2=O)C1(F)F ?
1.11

# query: hPepT1/Control | item CC(C)[C@H](N)C(=O)O[C@H]1C[C@H](n2cc(F)c(=O)[nH]c2=O)O[C@@H]1CO | system: HPEPT1 (Homo sapiens)
1.03

Can you look up hPepT1/Control on HPEPT1 (Homo sapiens) for NC(Cc1ccccc1)C(=O)O[C@H]1C[C@H](n2cc(F)c(=O)[nH]c2=O)O[C@@H]1CO (stereo partly drawn) ?
2.56

Item N[C@@H](Cc1ccccc1)C(=O)OC[C@H]1O[C@@H](n2cc(F)c(=O)[nH]c2=O)C[C@@H]1O with HPEPT1 (Homo sapiens) - hPepT1/Control?
12.34

HPEPT1 (Homo sapiens) / hPepT1/Control / CC[C@H](C)[C@H](N)C(=O)OC[C@H]1O[C@@H](n2ccc(N)nc2=O)C(F)(F)[C@@H]1O : value?
5.64

The measured values listed here are drawn from patent US20070167353A1.
